Just for reference, patent US20090018134A1 is where these values come from.

biological target: mTOR (Homo sapiens, UniProt P42345); construct: FLAG; made in house; experiment: In Vitro mTOR Kinase Assay (Echo), Test (a)(ii); format: biochemical; conditions: table of enzyme assay Test (a)(ii); read-out: Test (a)(ii) IC50
Sequence (P42345 1362-2549): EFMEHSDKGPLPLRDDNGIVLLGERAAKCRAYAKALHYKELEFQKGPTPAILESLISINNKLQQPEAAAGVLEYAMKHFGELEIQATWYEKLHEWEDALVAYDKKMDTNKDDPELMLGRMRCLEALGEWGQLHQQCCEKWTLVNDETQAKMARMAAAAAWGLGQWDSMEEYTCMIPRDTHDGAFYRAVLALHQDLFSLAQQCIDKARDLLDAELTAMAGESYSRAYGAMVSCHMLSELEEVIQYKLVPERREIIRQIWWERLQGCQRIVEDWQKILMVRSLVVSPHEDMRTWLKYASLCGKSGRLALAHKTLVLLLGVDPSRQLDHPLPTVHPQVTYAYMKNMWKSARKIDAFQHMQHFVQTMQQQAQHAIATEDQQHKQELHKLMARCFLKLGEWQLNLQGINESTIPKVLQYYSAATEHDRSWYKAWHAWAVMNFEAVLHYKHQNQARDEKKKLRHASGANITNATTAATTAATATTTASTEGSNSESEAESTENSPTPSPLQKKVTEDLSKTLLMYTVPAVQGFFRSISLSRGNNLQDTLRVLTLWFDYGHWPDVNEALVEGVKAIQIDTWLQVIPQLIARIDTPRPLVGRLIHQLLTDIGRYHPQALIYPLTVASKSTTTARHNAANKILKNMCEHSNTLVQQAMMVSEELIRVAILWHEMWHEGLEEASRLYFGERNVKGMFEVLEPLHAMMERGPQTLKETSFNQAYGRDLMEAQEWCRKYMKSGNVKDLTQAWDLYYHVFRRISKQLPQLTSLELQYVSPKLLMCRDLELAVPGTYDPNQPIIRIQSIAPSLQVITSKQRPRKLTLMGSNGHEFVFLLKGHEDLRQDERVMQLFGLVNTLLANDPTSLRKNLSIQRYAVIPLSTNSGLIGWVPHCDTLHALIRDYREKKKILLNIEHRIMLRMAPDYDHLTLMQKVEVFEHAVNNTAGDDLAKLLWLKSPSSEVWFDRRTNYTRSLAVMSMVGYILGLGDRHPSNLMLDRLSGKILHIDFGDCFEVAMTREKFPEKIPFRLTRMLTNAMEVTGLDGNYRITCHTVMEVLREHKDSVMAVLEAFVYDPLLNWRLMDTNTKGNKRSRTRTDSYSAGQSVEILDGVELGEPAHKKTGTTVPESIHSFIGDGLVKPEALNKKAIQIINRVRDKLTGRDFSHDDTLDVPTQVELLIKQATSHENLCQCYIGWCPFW
pIC50: −log10 of the molar value.
Measured Property: pIC50

>  <Compound>
C[C@H]1COCCN1c1cc(C2(S(=O)(=O)c3ccccc3)CC2)nc(-c2ccc(NC(=O)Nc3ccn(C)n3)cc2)n1 [Example 36dv]

>  <Target Or System>
mTOR (Homo sapiens, UniProt P42345)

>  <Reading>
8.37

$$$$

a: C[C@H]1COCCN1c1cc(C2(S(=O)(=O)CCCO)CC2)nc(-c2ccc(NC(=O)Nc3ccon3)cc2)n1 [Example 64ak]
b: C[C@H]1COCCN1c1cc(C2(S(=O)(=O)C3CC3)CCNCC2)nc(-c2ccc(NC(=O)NCCO)cc2)n1 [Example 21b]
Returns: the argument ( a or b ) having the larger pIC50. Returns: label corresponding to the selected item. a
(a: 8.79, b: 7.88)
